Assignment: determine reported HDAC7 (Nur77 reporter assay) % Max Resp of CS055 at 3 μM for the given compounds.
systemUnderTest: HDAC7 (Homo sapiens)
Construct: endogenous in cells; host or cells: HeLa
Sequence (Q8WUI4 whole entry): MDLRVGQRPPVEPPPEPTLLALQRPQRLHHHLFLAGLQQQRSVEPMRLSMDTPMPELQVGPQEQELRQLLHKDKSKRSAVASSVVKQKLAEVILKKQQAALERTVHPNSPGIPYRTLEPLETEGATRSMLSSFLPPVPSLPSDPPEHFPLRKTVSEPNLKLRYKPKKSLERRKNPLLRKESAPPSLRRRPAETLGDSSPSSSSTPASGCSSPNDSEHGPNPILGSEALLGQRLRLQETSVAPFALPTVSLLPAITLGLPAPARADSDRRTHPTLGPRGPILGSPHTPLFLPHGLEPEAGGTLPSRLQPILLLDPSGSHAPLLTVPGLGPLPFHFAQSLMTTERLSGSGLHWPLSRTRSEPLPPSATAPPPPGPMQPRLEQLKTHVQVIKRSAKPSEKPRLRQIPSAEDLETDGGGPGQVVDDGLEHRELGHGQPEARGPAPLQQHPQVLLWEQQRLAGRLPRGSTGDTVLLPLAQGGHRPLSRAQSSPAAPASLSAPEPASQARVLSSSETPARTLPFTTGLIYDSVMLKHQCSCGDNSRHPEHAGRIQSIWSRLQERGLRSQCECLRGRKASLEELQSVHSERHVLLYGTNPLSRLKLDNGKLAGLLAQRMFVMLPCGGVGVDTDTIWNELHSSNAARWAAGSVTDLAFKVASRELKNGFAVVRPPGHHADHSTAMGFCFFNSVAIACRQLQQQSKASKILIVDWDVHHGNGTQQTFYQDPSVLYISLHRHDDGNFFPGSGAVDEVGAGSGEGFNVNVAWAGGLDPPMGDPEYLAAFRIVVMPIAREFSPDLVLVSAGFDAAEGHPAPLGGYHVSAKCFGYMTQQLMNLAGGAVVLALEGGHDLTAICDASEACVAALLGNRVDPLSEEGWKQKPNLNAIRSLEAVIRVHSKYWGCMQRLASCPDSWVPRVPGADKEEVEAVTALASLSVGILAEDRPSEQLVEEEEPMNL
experiment: Nur77 reporter assay in HeLa cells
Format: cell-based
appliedConditions: relative to CS055 at 3 μM
Report only the number, with the unit % understood.

IN: Tell me HDAC7 (Nur77 reporter assay) % Max Resp of CS055 at 3 μM of Cc1[nH]c(/C=N/N=C2\C(=O)Nc3ccc(F)cc32)c(C)c1C(=O)NCCCNc1ccc(C(=O)Nc2ccccc2N)cn1 when tested on HDAC7 (Homo sapiens).
OUT: 12.4

IN: State, for HDAC7 (Homo sapiens), measured HDAC7 (Nur77 reporter assay) % Max Resp of CS055 at 3 μM of the compound listed here: Cc1[nH]c(/C=C2\C(=O)Nc3ccc(F)cc32)c(C)c1C(=O)NCCCCNc1ccc(C(=O)Nc2ccccc2N)cn1
OUT: 88.7

IN: Enter measured HDAC7 (Nur77 reporter assay) % Max Resp of CS055 at 3 μM, system HDAC7 (Homo sapiens), for the compound shown: Cc1[nH]c(/C=C2\C(=O)Nc3ccc(F)cc32)c(C)c1C(=O)NCCNc1ccc(C(=O)Nc2ccccc2N)cn1
OUT: 113.5

IN: State recorded HDAC7 (Nur77 reporter assay) % Max Resp of CS055 at 3 μM with HDAC7 (Homo sapiens), entry Cc1[nH]c(/C=C2\C(=O)Nc3ccc(F)cc32)c(C)c1C(=O)NCCCNc1ccc(C(=O)Nc2ccc(F)cc2N)cn1 , no comment.
OUT: 6.5

IN: Provide the reported HDAC7 (Nur77 reporter assay) % Max Resp of CS055 at 3 μM (system: HDAC7 (Homo sapiens)) for Cc1[nH]c(/C=N/N=C2\C(=O)Nc3ccc(F)cc32)c(C)c1C(=O)NCCNc1ccc(C(=O)Nc2ccc(F)cc2N)cn1
OUT: 4.5

IN: # lookup: HDAC7 (Homo sapiens) HDAC7 (Nur77 reporter assay) % Max Resp of CS055 at 3 μM, key = O=C(CCCCCCC(=O)Nc1ccccc1)NO [SAHA, suberoylanilide hydroxamic acid, reference compound]
OUT: 514.9

IN: Report value only: HDAC7 (Nur77 reporter assay) % Max Resp of CS055 at 3 μM, HDAC7 (Homo sapiens), Cc1[nH]c(/C=C2\C(=O)Nc3ccc(F)cc32)c(C)c1C(=O)NCCNc1ccc(C(=O)Nc2ccc(F)cc2N)cn1
OUT: 6.4

###

Consider the following molecules; for each one, report its EC50.
systemUnderTest: HDAC3 (Homo sapiens)
Construct: endogenous in cells
Sequence (O15379 whole entry): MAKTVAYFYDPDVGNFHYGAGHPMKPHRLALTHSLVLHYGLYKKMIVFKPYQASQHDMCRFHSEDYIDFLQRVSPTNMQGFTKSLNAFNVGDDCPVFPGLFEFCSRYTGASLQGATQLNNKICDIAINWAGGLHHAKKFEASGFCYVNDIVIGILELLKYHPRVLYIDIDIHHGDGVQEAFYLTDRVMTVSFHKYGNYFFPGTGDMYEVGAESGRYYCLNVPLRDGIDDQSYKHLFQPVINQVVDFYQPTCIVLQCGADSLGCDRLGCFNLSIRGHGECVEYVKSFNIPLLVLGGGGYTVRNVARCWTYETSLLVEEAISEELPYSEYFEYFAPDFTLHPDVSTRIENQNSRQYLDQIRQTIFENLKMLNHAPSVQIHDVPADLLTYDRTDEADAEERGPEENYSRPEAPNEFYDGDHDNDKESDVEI
Sequence (Q9Y618 whole entry partner): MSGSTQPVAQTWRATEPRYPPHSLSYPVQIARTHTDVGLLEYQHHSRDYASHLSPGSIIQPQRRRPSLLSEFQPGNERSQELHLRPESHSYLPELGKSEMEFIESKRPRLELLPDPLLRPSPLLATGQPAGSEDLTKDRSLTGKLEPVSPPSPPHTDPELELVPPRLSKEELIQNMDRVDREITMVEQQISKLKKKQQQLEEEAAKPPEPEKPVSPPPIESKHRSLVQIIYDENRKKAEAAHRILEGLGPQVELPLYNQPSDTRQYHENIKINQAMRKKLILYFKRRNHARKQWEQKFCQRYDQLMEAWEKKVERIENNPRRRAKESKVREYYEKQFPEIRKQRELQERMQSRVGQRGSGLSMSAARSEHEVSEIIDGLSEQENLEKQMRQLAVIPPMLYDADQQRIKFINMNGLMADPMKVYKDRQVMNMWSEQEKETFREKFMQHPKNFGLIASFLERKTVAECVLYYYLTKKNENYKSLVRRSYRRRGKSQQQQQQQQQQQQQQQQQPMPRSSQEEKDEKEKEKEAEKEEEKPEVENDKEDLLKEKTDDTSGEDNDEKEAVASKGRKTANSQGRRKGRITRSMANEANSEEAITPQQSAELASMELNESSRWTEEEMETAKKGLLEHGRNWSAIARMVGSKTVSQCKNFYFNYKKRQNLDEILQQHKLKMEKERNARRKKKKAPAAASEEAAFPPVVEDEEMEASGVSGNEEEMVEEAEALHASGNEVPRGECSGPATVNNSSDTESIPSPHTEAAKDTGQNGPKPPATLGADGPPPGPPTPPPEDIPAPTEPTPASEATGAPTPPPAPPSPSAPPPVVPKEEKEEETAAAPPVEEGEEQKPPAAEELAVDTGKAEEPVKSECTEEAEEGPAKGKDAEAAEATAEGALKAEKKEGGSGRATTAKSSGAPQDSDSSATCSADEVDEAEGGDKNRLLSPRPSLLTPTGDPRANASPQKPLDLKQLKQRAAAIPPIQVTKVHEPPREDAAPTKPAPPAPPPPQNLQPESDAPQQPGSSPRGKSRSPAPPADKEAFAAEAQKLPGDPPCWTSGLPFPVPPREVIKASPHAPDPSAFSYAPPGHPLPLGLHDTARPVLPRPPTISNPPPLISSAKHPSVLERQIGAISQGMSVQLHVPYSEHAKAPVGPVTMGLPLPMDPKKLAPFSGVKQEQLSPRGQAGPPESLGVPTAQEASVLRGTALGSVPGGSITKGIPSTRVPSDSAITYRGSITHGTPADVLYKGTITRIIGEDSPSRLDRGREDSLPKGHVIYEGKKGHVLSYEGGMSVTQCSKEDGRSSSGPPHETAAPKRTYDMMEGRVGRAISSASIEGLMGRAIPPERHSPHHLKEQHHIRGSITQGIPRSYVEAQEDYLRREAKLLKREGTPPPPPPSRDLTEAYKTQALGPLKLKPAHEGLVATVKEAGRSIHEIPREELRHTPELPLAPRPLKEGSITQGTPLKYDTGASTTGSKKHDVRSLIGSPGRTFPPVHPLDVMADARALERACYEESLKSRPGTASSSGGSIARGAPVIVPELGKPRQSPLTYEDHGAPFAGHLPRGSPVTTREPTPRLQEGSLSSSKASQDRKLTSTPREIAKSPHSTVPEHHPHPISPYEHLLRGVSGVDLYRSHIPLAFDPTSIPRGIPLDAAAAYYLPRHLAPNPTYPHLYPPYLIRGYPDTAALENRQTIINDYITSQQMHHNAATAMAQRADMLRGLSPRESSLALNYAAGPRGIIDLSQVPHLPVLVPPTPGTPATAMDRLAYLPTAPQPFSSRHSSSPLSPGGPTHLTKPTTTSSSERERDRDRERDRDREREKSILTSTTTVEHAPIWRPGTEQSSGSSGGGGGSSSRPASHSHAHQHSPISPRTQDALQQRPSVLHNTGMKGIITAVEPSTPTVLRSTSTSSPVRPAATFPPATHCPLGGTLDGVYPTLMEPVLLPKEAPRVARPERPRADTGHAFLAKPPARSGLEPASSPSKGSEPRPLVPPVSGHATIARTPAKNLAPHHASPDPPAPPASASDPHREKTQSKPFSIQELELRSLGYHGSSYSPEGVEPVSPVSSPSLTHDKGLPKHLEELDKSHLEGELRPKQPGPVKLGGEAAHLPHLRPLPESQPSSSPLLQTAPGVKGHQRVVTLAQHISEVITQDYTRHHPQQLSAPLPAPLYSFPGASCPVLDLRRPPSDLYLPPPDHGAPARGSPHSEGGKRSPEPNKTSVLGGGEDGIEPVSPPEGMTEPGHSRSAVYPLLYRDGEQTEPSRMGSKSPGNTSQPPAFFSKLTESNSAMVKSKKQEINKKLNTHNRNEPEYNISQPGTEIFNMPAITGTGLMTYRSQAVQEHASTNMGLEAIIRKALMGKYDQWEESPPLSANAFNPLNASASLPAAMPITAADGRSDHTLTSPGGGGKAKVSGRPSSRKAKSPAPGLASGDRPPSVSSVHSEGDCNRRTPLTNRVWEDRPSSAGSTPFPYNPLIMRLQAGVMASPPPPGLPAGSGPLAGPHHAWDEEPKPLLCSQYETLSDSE
experiment: GDF11 reporter assay in HeLa cells
appliedConditions: 24 hours

IN: Lab note: HDAC3 (Homo sapiens) assay, enter EC50 for Cc1[nH]c(/C=C2\C(=O)Nc3ccc(F)cc32)c(C)c1C(=O)NCCCNc1ccc(C(=O)Nc2ccccc2N)cn1 [Example 6] here
OUT: 1 µM

IN: # return EC50 for Cc1[nH]c(/C=C2\C(=O)Nc3ccc(F)cc32)c(C)c1C(=O)NCCCCNc1ccc(C(=O)Nc2ccccc2N)cn1 [Example 9] , test system: HDAC3 (Homo sapiens)
OUT: 15.5 µM

IN: Please tell me the measured EC50 for Cc1[nH]c(/C=C2\C(=O)Nc3ccc(F)cc32)c(C)c1C(=O)NCCNc1ccc(C(=O)Nc2ccccc2N)cn1 [Example 3] ; system: HDAC3 (Homo sapiens).
OUT: 1.9 µM

These measurements were taken from patent US8158656B2.
